- Tested on: OVCAR-4 ovarian
- PROCEDURE_SUMMARY: NCI tumour cell line growth inhibition, 48 h

SMILES_ENTRY | GI50
COc1ccc(/C=C(/C(=O)N2CCN(c3ccccc3)CC2)c2cc(OC)c(OC)c(OC)c2)cc1O | 2.7 µM
COc1cc(N(CCC#N)CCC#N)ccc1/C(N=Nc1ccc([N+](=O)[O-])cc1)=N/NC(=O)c1cc(Br)ccc1O | 21.5 µg/mL
CCCCCCCCCCCCCC1=NC(C)(C)CN1C(C)C | 1.76 µM
O=C(Nc1nc2ccc(C(F)(F)F)cc2s1)c1cc(Cl)ccc1O | 1.87 µM
C=C1C(=O)O[C@@H]2C[C@@H]1CC/C(C)=C/CC/C(C)=C/CC[C@@]2(C)O | 34.6 µM
Cc1ccc(C)c(C2=C(c3cn(C)c4ccccc34)C(=O)NC2=O)c1 | > 25 µM

Data credit: PubChem BioAssay (NCI)
